- TARGET OR SYSTEM: CD28 (human) (UniProt P10747)
- EXPERIMENT DESCRIPTION: flow cytometry, Expi293F cells transfected with CD28

# BINDER, MFI (MFI)
measured = [
    ("CD80 E24G/R29D/Y31L/Q33H/K36G/M38I/T41A/M43R/M47T/F59L/E81V/L85R/K89N/A91T/F92P/K93V/R94L/H96R/N149S/C182S ECD-Fc (Fc fusion) VIHVTKEVKEVATLSCGHNVSVEGLAQTDILWHKEGKIVLAMRSGDTNIWPEYKNRTILDITNNLSIVILALRPSDEGTYVCVVRKYENDTPVLERLAEVTLSVKADFPTPSISDFEIPTSNIRRIICSTSGGFPEPHLSWLENGEELSAINTTVSQDPETELYAVSSKLDFNMTTNHSFMSLIKYGHLRVNQTFNWNTTKQEHFPDN", 1070),
]
